assay-explanation: chemical genetic growth profiling, strain panel (AID 1159580);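 further: tested at 20 µM; growth read once vehicle control cultures reached saturation at 30 °C; 1 = growth at the plate median or of vehicle wells; lower values mean less growth of the strain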
experimental-conditions: S. cerevisiae deletion strains, growth OD, locus YBR009C, strain hhf1, stronger effect = lower value
In all, about 5,500 compounds went through this assay and about 2,000 (36%) were called active. Roughly 18% stayed inconclusive and do not appear here. Some of the results follow.
experimental-readout: normalized growth
Lab note: record the figure alone, no unit after it.

compound | normalized growth
NCCCC(O)(P(=O)(O)O)P(=O)(O)O | 0.988
O=C(Oc1ccccc1C(=O)O)c1ccccc1O | 1.01
COC1=CC(=O)C=C(OC)C1=O | 0.98

Sample CC1=CC(=O)C2C(C)(C)CCC[C@]2(C)[C@@]1(O)CCc1ccoc1 (some centres undefined) — what was its normalized growth?
0.999

Sample CC1=C2C(O)C(=O)OC3CC4C(C)(C)C(=O)C=C[C@]4(C)C(CC1)[C@]23C (some centres undefined) — what was its normalized growth?
1

Sample CC(=O)Oc1ccccc1C(=O)Oc1ccccc1C(=O)O — what was its normalized growth?
1.01

Sample COC(=O)NC(=S)Nc1ccccc1NC(=S)NC(=O)OC — what was its normalized growth?
0.973

Sample CC1(C)C(O)CC(=O)C2(C)C1CC(O)C1(C)C2CCC2(C)C(c3ccoc3)OC(=O)C3OC321 (centres undefined) — what was its normalized growth?
0.999

Sample COC(=O)C[C@H]1C(C)(C)[C@@H](O)[C@@H]2CC3=C4CC(O)O[C@@H](c5ccoc5)[C@]4(C)CCC3[C@@]1(C)C2=O (some centres undefined) — what was its normalized growth?
1.02

---

assay-explanation: chemical genetic growth profiling, strain panel (AID 1159580)
experimental-conditions: S. cerevisiae strains, growth OD, strain wild type, stronger effect = lower value
About 2,000 (36%) of roughly 5,500 compounds were called active. About 18% were inconclusive and are not listed. This is one part of the list.
Listing of recorded normalized growth by entry.
Lab note: record the figure alone, no unit after it.

Below: 5 compounds and their reported normalized growth.
compound | normalized growth
COC(=O)C(N)CS (stereo not drawn) | 0.983
CN(C)C(=O)C(CCN1CCC(O)(c2ccc(Cl)cc2)CC1)(c1ccccc1)c1ccccc1 | 0.993
CC(C)Nc1nc(Cl)nc(NC(C)C)n1 | 1
COC1=CC(C)[C@@H]2C[C@H]3OC(=O)C[C@H]4C(C)=C(OC)C(=O)C([C@@]34C)[C@@]2(C)C1=O (stereo partly drawn) | 1.01
C/C=C/CC(C)C(O)C1C(=O)NC(CC)C(=O)N(C)CC(=O)N(C)C(CC(C)C)C(=O)NC(C(C)C)C(=O)N(C)C(CC(C)C)C(=O)NC(C)C(=O)NC(C)C(=O)N(C)C(CC(C)C)C(=O)N(C)C(CC(C)C)C(=O)N(C)C(C(C)C)C(=O)N1C (stereo not drawn) | 1

Sample CCCCC(=O)O[C@]1(C(=O)CO)[C@@H](C)CC2C3CCC4=CC(=O)C=C[C@]4(C)[C@@]3(F)C(O)C[C@@]21C (stereo partly drawn) — what was its normalized growth?
0.985

Sample CC[C@@]1(O)C(=O)OCc2c1cc1n(c2=O)Cc2cc3cc(O)ccc3nc2-1 — what was its normalized growth?
1.02

Sample COc1cc(O)c2c(=O)cc(-c3ccc(OC)c(-c4c(O)cc(O)c5c(=O)cc(-c6ccc(O)cc6)oc45)c3)oc2c1 — what was its normalized growth?
0.904

---

assay-explanation: chemical genetic growth profiling, strain panel (AID 1159580)
experimental-conditions: S. cerevisiae deletion strains, growth OD, locus YLR085C, strain ARP6
Screen size: about 5,500 compounds; about 2,000 (36%) were called active. About 18% were inconclusive and are not listed. Cut-off read from the data, not from the text of the source: active = normalized growth mostly below about 0.91 (no sharp cut-off); inconclusive = no clear call, values can overlap the other calls; inactive = mostly above about 0.92. Some of the results follow.
Choose the fitting class; nothing outside true for active, false for inactive is accepted.

compound | category-label
O=C1CC(=O)CC(c2ccc(Cl)c(Cl)c2)C1 | false
COc1ccc([N+](=O)[O-])c(OC)c1C(N)=O | false
CCOC(=O)c1nnc2cc(C)nn2c1C | false
Cc1nnsc1C(=O)O/N=C1/CCSc2ccc(F)cc21 | false
Cn1c2c(c3ccccc31)/C(=N\OC(=O)c1ccc(Cl)cc1Cl)CCC2 | false
O=C1NC(=S)NC(=O)C1=Cc1cccc2ccccc12 | false

// return assay outcome for COc1ccc(OC)c(CNC(=O)Cc2cccs2)c1
false

// return assay outcome for O=C(NCCCCO)OCC1c2ccccc2-c2ccccc21
false

// return assay outcome for NC(=S)CS(=O)(=O)c1ccc(C(F)(F)F)cc1
true

// return assay outcome for CCSc1ncccc1C(=O)N[C@@H](CCSC)C(=O)OC
false

---

assay-explanation: chemical genetic growth profiling, strain panel (AID 1159580);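 further: tested at 20 µM; growth read once vehicle control cultures reached saturation at 30 °C; 1 = growth at the plate median or of vehicle wells; lower values mean less growth of the strain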
experimental-conditions: S. cerevisiae deletion strains, growth OD, locus YCL029C, strain bik1, stronger effect = lower value
In all, about 5,500 compounds went through this assay and about 2,000 (36%) were called active. Not shown: some 18% with an inconclusive outcome. Some of the results follow.
experimental-readout: normalized growth
Lab note: record the figure alone, no unit after it.

compound | normalized growth
CC1=C2C(O)C(=O)OC3CC4C(C)(C)C(=O)C=C[C@]4(C)C(CC1)[C@]23C (stereo partly drawn) | 1
C[C@H]1O[C@@H](O[C@H]2[C@@H](O)C[C@H](O[C@H]3[C@@H](O)C[C@H](O[C@H]4CC[C@]5(C)C6C[C@@H](O)[C@]7(C)[C@@H](C8=CC(=O)OC8)CC[C@]7(O)C6CC[C@@H]5C4)O[C@@H]3C)O[C@@H]2C)C[C@H](O)[C@@H]1O (stereo partly drawn) | 0.977
NC[C@H]1O[C@H](O[C@H]2[C@H](O)[C@@H](O[C@H]3O[C@H](CO)[C@@H](O)[C@H](N)[C@H]3O)[C@H](N)C[C@@H]2N)[C@H](N)[C@@H](O)[C@@H]1O | 0.977
C[C@]12CCC(=O)C=C1CCc1ccc(O)cc12 | 0.992

Sample COc1cccc2c1CCC1=CC(=O)CC[C@@]12C — what was its normalized growth?
0.985

Sample CSCCC(N)C(=O)NC(CC(C)C)C(=O)NC(Cc1ccccc1)C(=O)O (stereo not drawn) — what was its normalized growth?
0.987

Sample C[C@H]1OC(O[C@H]2[C@@H](O)CC(O[C@H]3[C@@H](O)C[C@H](O[C@H]4CC[C@]5(C)C6CC[C@]7(C)[C@@H](C8=CC(=O)OC8)[C@@H](O)C[C@]7(O)[C@@H]6CC[C@@H]5C4)O[C@@H]3C)O[C@@H]2C)C[C@H](O)C1O (stereo partly drawn) — what was its normalized growth?
0.989

---

assay-explanation: chemical genetic growth profiling, strain panel (AID 1159580);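 further: tested at 20 µM; growth read once vehicle control cultures reached saturation at 30 °C; 1 = growth at the plate median or of vehicle wells; lower values mean less growth of the strain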
experimental-conditions: S. cerevisiae deletion strains, growth OD, locus YER155C, strain BEM2 (second series)
In all, about 5,500 compounds went through this assay and about 2,000 (36%) were called active. Another 18% or so got no clear call; they are omitted. Rule as the data show it: active = normalized growth mostly below about 0.91 (no sharp cut-off); inconclusive = no clear call, values can overlap the other calls; inactive = mostly above about 0.92. Some of the results follow.
Choose the fitting class; nothing outside y for active, n for inactive is accepted.

compound | category-label
NC(=O)c1ccc([N+](=O)[O-])cc1Cl | n
CC1=CC(=O)C(C(C)C)=CC1=O | y

Then this compound:
// return assay outcome for COC(=O)C(N)CS (stereo not drawn)
n

---

assay-explanation: chemical genetic growth profiling, strain panel (AID 1159580);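 further: tested at 20 µM; growth read once vehicle control cultures reached saturation at 30 °C; 1 = growth at the plate median or of vehicle wells; lower values mean less growth of the strain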
experimental-conditions: S. cerevisiae deletion strains, growth OD, locus YLR342W, strain FKS1, stronger effect = lower value
Screen size: about 5,500 compounds; about 2,000 (36%) were called active. About 18% were inconclusive and are not listed. The list shows a part of the results.
Listing of recorded normalized growth by entry.
Lab note: record the figure alone, no unit after it.

Below: 3 compounds and their reported normalized growth.
compound | experimental-readout | value
C=CCSSSCC=C | normalized growth | 0.98
CC1(C)Oc2ccc3ccc(=O)oc3c2CC1O (stereo unspecified) | normalized growth | 0.973
C[C@H]1O[C@H](O[C@H]2[C@H](O)[C@@H](O)[C@@H](O[C@H]3[C@H](O)[C@@H](O)C(O)O[C@@H]3CO)O[C@@H]2CO)[C@H](O)[C@@H](O)[C@@H]1N[C@H]1C=C(CO)[C@@H](O)[C@H](O)[C@H]1O (stereo partly specified) | normalized growth | 0.973

Sample O=C(Oc1ccccc1C(=O)O)c1ccccc1O — what was its normalized growth?
0.979

Sample CC(C)(C)NCC(O)COc1cccc2c1C[C@H](O)[C@H](O)C2 (stereo partly specified) — what was its normalized growth?
1.01

Sample C=CCSC[C@@H](N)C(=O)O — what was its normalized growth?
1.02

Sample CCC(=O)OCC(=O)C1(OC(=O)CC)C(C)CC2C3CCC4=CC(=O)C=CC4(C)C3(Cl)C(O)CC21C (stereo unspecified) — what was its normalized growth?
0.977

Sample Oc1ccc2c3c1OC1[C@@H](O)CC[C@@]4(O)[C@@H](C2)N(CC2CCC2)CC[C@]314 (stereo partly specified) — what was its normalized growth?
1

Sample C[N+]1(C)C[C@H](O)[C@H](C(=O)[O-])C1 — what was its normalized growth?
1.01

Sample CCC(=O)OCC(=O)[C@@]1(OC(=O)CC)[C@@H](C)CC2C3CCC4=CC(=O)C=C[C@]4(C)C3(F)[C@@H](O)C[C@@]21C (stereo partly specified) — what was its normalized growth?
1.01

This collection of values is drawn from PubChem BioAssay AID1159580.
